Kindly supply the reported fold change values for the records listed here.
# protocol_description: viability loss with induced miR-34 in A549 – imaging, A549 dox-inducible miR-34, nuclei and caspase counts, primary screen (AID 1347080); further: test concentration not given here
# condition_set: A549 miR-34 inducible, Hoechst nuclei count, 48 h; stronger effect = lower value; cell number ratio, induced over uninduced
Answers are plain numbers.

O=C(O)CCC/C=C\C[C@@H]1CO[C@H](C(F)(F)F)O[C@@H]1c1ccccc1O	0.924

For every item in the list below, what is its measured fold change?
1. O=c1cc(CN2CCOCC2)occ1OCCCCCSc1ccnc2cc(C(F)(F)F)ccc12
2. O=C(OCCN1CCCCC1)c1c[nH]c2ccccc12
3. CC1COC2(CCN(c3nc(=O)c4cc(C(F)(F)F)cc([N+](=O)[O-])c4s3)CC2)O1 (stereo not given)
4. COC(=O)C1=C(C)NC(C)=C([N+](=O)[O-])[C@H]1c1ccccc1C(F)(F)F

0.876
0.911
0.872
0.834
